Published IC50 for Cytochrome P450 2C9 (Homo sapiens), assembled from different documents, is shown next.
measured-endpoint: IC50 (µM)

1) C=CC(=O)Nc1cccc(C)c1Nc1ncc2cc(-c3c(Cl)c(OC)cc(OC)c3Cl)ccc2n1; 0.9
2) NC(=O)[C@]12CC3CC(C1)[C@@H](OC(=O)N1CC[C@@H](Nc4ccc(C(F)(F)F)cn4)C1)C(C3)C2; 4.1
3) N=C(N)NC(=O)c1ccc(C2CCN(C(=O)C3CC3)CC2)c(C(F)(F)F)c1; 6
4) C[C@@H](Nc1c(Nc2ccn[nH]2)c(=O)c1=O)c1ccccc1; 12
5) Cc1cccc(C)c1CNc1nc(-c2ccccc2)cc2c(C)c(C)[nH]c12; 6.7
6) CCNc1cc(C(=O)N[C@@H](Cc2ccccc2)[C@H](O)CNCc2cccc(C(F)(F)F)c2)c(F)c(N2CCCCS2(=O)=O)c1; 9
7) CCN(CC)CCN(Cc1ccc(-c2ccc(C(F)(F)F)cc2)cc1)C(=O)Cn1cc(Cc2cnn(C)c2)c(=O)nc1SCc1ccc(F)cc1; 100
8) Cc1nnc(C)n1-c1ccc(O[C@H]2c3cc(Cl)cc(Cl)c3C[C@@H]2N2CC[C@@H](O)C2)c(F)c1.Cl; 0.9
9) O=c1c(C2=Nc3ccccc3S(=O)(=O)N2)c(O)c2cc(F)ccc2n1CCC1CC1; 0.84
10) FC(F)(F)c1c(N2CCC(c3ccccc3)CC2)ccn2c(CC3CC3)nnc12; 11
